Recorded MIC50 values for a group of compounds are listed next.
System: A. niger ATCC 16404

O=C(/C=C/c1ccc(Cl)cc1)c1ccc(OC[C@@](O)(Cn2cncn2)c2ccc(F)cc2F)cc1 [S-(+)-1A-6] | > 4 µg/mL
OC(Cn1cncn1)(Cn1cncn1)c1ccc(F)cc1F | > 128 µg/mL
COc1ccc(C(=O)/C=C/c2ccc(OCC(O)(Cn3cncn3)c3ccc(F)cc3F)cc2)cc1 (stereo not drawn) | > 4 µg/mL
O=C(/C=C/c1ccc(Cl)cc1)c1ccc(OCC(O)(Cn2cncn2)c2ccc(F)cc2F)cc1 (stereo not drawn) | > 4 µg/mL
COc1cc(/C=C/C(=O)c2ccc(OCC(O)(Cn3cncn3)c3ccc(F)cc3F)cc2)cc(OC)c1 (stereo not drawn) | > 4 µg/mL

response.value for COc1ccc(/C=C/C(=O)c2ccc(OC[C@](O)(Cn3cncn3)c3ccc(F)cc3F)cc2)cc1 [R-(−)-1A-2] (field: MIC50) = 2 µg/mL

# compound O=C(c1ccc(OCC(O)(Cn2cncn2)c2ccc(F)cc2F)cc1)C(Br)C(Br)c1ccc(Cl)cc1Cl (stereo not drawn) ; its MIC50 = > 8 µg/mL

Noted for COc1cc(/C=C/C(=O)c2ccc(OCC(O)(Cn3cncn3)c3ccc(F)cc3F)cc2)cc(OC)c1OC (stereo not drawn) : its MIC50 reads > 4 µg/mL

Quick note, MIC50 for OC(/C=C/c1ccc(Cl)cc1Cl)c1ccc(OCC(O)(Cn2cncn2)c2ccc(F)cc2F)cc1 (stereo not drawn) landed at > 4 µg/mL

Entry Cc1ccc(C(=O)/C=C/c2ccc(OCC(O)(Cn3cncn3)c3ccc(F)cc3F)cc2)cc1 (stereo not drawn) , MIC50 reported as > 4 µg/mL

Reported MIC50 for O=C(c1ccc(OCC(O)(Cn2cncn2)c2ccc(F)cc2F)cc1)C1OC1c1ccc(Cl)cc1Cl (stereo not drawn) was > 4 µg/mL

MIC50 reading for C=CCOC(COc1ccc(C(=O)/C=C/c2ccc(Cl)cc2Cl)cc1)(Cn1cncn1)c1ccc(F)cc1F (stereo not drawn) : > 4 µg/mL

###

The following compounds each carry a recorded MIC50 for A. fumigatus ATCC 46645.

OC(COc1ccc(-c2cc(-c3ccc(Cl)cc3Cl)[nH]n2)cc1)(Cn1cncn1)c1ccc(F)cc1F (stereo not drawn) | > 4 µg/mL
O=C(/C=C/c1cccs1)c1ccc(OCC(O)(Cn2cncn2)c2ccc(F)cc2)cc1 (stereo not drawn) | > 8 µg/mL
O=C(/C=C/c1cccs1)c1ccc(OC[C@@](O)(Cn2cncn2)c2ccc(F)cc2F)cc1 [S-(+)-1A-13] | > 4 µg/mL

Bench note, A. fumigatus ATCC 46645: CCCCCC(=O)/C=C/c1ccc(OCC(O)(Cn2cncn2)c2ccc(F)cc2F)cc1 (stereo not drawn) , MIC50 reads > 4 µg/mL

The measured MIC50 that C=CCOC(COc1ccc(C(=O)/C=C/c2ccc(Cl)cc2Cl)cc1)(Cn1cncn1)c1ccc(F)cc1F (stereo not drawn) showed for A. fumigatus ATCC 46645 is > 4 µg/mL

Kindly note: A. fumigatus ATCC 46645, O=C(/C=C/c1cccs1)c1ccc(OCC(O)(Cn2cncn2)c2ccc(F)cc2F)cc1 (stereo not drawn) , MIC50 value reported: > 8 µg/mL

Considering O=C(c1ccc(OCC(O)(Cn2cncn2)c2ccc(F)cc2F)cc1)C(Br)C(Br)c1ccc(Cl)cc1Cl (stereo not drawn) , its MIC50 with A. fumigatus ATCC 46645 was recorded as > 8 µg/mL

Field MIC50 (A. fumigatus ATCC 46645), entry O=C(/C=C/c1ccc(Cl)cc1)c1ccc(OCC(O)(Cn2cncn2)c2ccc(F)cc2)cc1 (stereo not drawn) : > 4 µg/mL

The origin of these recorded values is patent US9512087B2.
